Taken from paper PMC10649008.

Assay: Single-dose plasma pharmacokinetics of telavancin in pediatric subjects (noncompartmental analysis)
Format: in vivo, human
Conditions: human, in vivo, iv, 10 mg/kg, Cohort 1 (12–17 years), N = 13; single 10 mg/kg IV infusion over 60 min; plasma; mean ± SD; read-out: C max (maximum plasma concentration)
experimental-endpoint: Cmax (µg/mL)
Report only the number, with the unit µg/mL understood.

Measured Cmax, "CCCCCCCCCCNCCN[C@@]1(C)C[C@H](O[C@H]2[C@H](Oc3c4cc5cc3Oc3ccc(cc3Cl)[C@@H](O)[C@@H](NC(=O)[C@@H](CC(C)C)NC)C(=O)N[C@@H](CC(N)=O)C(=O)N[C@H]5C(=O)N[C@H]3C(=O)N[C@H](C(=O)N[C@H](C(=O)O)c5cc(O)c(CNCP(=O)(O)O)c(O)c5-c5cc3ccc5O)[C@H](O)c3ccc(c(Cl)c3)O4)O[C@H](CO)[C@@H](O)[C@@H]2O)O[C@@H](C)[C@H]1O" : 58.3
